Target: Cyclin-dependent kinase 2/cyclin E1 (Homo sapiens, UniProt P24941)
Test: Inhibition of CDK2/cyclin E1 (unknown origin) expressed in Sf9 insect cells using UlightCFFKNIVTPRTPPPSQGK-amide substrate after 15 mins by […]
Assign pIC50 to each entry below.
Answers are plain numbers, as −log10 of the molar value.

Solved entries:
1) O=C(Nc1cccc(Nc2ncc(F)c(Nc3ccc(F)cc3)n2)c1)c1ccncc1
4.82
2) CC(=O)N1CCCN(C(=O)c2cccc(Nc3ncc(F)c(Nc4ccc(F)cc4)n3)c2)CC1
4.22
3) CN1CCC(C(=O)Nc2cccc(Nc3ncc(F)c(Nc4ccc(F)cc4)n3)c2)CC1
5.91
4) CN(C)CCNC(=O)c1cccc(Nc2ncc(F)c(Nc3ccc(F)cc3)n2)c1
5.33
5) COCC(=O)Nc1cccc(Nc2ncc(F)c(Nc3ccc(F)cc3)n2)c1
5.49

Value sought for every listed compound: pIC50.
1. Fc1cnc(Nc2cccc(N3CCOCC3)c2)nc1Nc1c(F)cccc1F
2. CN1CCN(C(=O)c2cccc(Nc3ncc(F)c(Nc4ccc(F)cc4)n3)c2)CC1

1: 5.23; 2: 4.66

---

Biological target: CDK9/cyclin T1 (Homo sapiens, UniProt P50750)
Sequence (O60563 whole entry): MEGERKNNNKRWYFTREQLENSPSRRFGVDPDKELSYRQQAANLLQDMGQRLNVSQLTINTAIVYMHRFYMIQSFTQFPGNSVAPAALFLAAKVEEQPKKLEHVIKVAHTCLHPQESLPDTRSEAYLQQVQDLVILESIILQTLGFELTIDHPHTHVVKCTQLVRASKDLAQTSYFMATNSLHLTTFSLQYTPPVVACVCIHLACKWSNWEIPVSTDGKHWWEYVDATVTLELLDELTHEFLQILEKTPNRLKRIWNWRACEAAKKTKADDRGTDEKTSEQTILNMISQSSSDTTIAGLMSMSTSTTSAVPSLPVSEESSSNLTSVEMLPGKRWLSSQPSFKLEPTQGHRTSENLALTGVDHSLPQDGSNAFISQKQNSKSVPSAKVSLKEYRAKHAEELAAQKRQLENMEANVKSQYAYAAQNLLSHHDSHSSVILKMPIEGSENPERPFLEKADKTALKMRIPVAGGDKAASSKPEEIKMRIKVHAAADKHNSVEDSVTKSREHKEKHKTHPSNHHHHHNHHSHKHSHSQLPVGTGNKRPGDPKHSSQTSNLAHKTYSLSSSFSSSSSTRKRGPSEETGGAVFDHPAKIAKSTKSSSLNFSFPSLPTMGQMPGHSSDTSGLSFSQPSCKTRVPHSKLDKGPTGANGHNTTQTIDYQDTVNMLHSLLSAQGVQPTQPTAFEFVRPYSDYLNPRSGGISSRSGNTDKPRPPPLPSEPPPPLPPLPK
Sequence (P50750 whole entry): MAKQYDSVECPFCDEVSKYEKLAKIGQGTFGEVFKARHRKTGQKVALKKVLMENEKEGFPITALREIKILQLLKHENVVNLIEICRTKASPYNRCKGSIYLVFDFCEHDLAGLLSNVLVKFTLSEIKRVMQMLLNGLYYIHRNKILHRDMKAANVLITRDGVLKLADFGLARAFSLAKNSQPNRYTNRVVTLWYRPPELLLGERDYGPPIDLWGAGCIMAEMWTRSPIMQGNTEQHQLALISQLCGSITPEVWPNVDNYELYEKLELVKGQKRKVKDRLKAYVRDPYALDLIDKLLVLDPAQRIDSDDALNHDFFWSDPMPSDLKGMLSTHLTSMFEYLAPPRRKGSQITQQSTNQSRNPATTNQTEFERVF
Assay: Inhibition of CDK9/Cyclin-T1 (unknown origin) using UlightCFFKNIVTPRTPPPSQGK-amide substrate after 90 mins by […]
Binary call on IC50 with cut-off 2 µM: strictly below means Fulfilled, and equality or higher means Not fulfilled.

Field: example entries. Status: answers known.
1. CN1CCN(C(=O)c2cccc(Nc3ncc(F)c(Nc4ccc(F)cc4)n3)c2)CC1
Not fulfilled
2. CN1CCC(C(=O)Nc2cccc(Nc3ncc(F)c(Nc4ccc(F)cc4)n3)c2)CC1
Not fulfilled
3. O=C(Nc1cccc(Nc2ncc(F)c(Nc3ccc(F)cc3)n2)c1)c1ccncc1
Not fulfilled
4. CN(C)CCNC(=O)c1cccc(Nc2ncc(F)c(Nc3ccc(F)cc3)n2)c1
Fulfilled
5. CC(=O)N1CCCN(C(=O)c2cccc(Nc3ncc(F)c(Nc4ccc(F)cc4)n3)c2)CC1
Not fulfilled
6. Fc1cnc(Nc2cccc(N3CCOCC3)c2)nc1Nc1c(F)cccc1F
Fulfilled

Below 2 µM on IC50? Entry COc1ccc(N2CCN(C)CC2)cc1Nc1ncc(F)c(Nc2ccc(F)cc2)n1 Not fulfilled

---

Test: Antiproliferative activity against human KBVIN cells after 3 days by SRB method
Assay type: functional
Conditions: 72 h
Binary call on GI50 with cut-off 10 µM: strictly below means true (1), and equality or higher means false (0).

Below 10 µM on GI50? Entry Fc1cnc(Nc2cccc(N3CCOCC3)c2)nc1Nc1cc(Cl)cc(Cl)c1 false (0)

Below 10 µM on GI50? Entry COc1ccc(N2CCOCC2)cc1Nc1ncc(F)c(Nc2ccc(F)cc2)n1 false (0)

Below 10 µM on GI50? Entry O=C(Nc1cccc(Nc2ncc(F)c(Nc3ccc(F)cc3)n2)c1)c1ccccc1 false (0)

Below 10 µM on GI50? Entry CN1CCC(C(=O)Nc2cccc(Nc3ncc(F)c(Nc4ccc(F)cc4)n3)c2)CC1 false (0)

Below 10 µM on GI50? Entry O=C(NCCO)c1cccc(Nc2ncc(F)c(Nc3ccc(F)cc3)n2)c1 false (0)

Below 10 µM on GI50? Entry CN1CC[C@H](c2c(O)cc(O)c3c(=O)cc(-c4ccccc4Cl)oc23)[C@H](O)C1 true (1)

Below 10 µM on GI50? Entry CN(C)CCNC(=O)c1cccc(Nc2ncc(F)c(Nc3ccc(F)cc3)n2)c1 true (1)

Below 10 µM on GI50? Entry O=C(c1cccc(Nc2ncc(F)c(Nc3ccc(F)cc3)n2)c1)N1CCCCC1 false (0)

Below 10 µM on GI50? Entry COc1ccc(NC(=O)c2cccc(Nc3ncc(F)c(Nc4ccc(F)cc4)n3)c2)cc1 false (0)

---

Assay: Antiproliferative activity against human KBVIN cells after 3 days by SRB method
Assay type: functional
Settings: 72 h
Assign GI50 to each entry below.
Give bare numbers, in µM.

1. CN1CCN(C(=O)c2cccc(Nc3ncc(F)c(Nc4ccc(F)cc4)n3)c2)CC1
12.3
2. CC(=O)N1CCCN(C(=O)c2cccc(Nc3ncc(F)c(Nc4ccc(F)cc4)n3)c2)CC1
16.7
3. O=C(Nc1cc(Cl)cc(Cl)c1)c1cccc(Nc2ncc(F)c(Nc3ccc(F)cc3)n2)c1
20.7
4. Cn1ccnc1NC(=O)c1cccc(Nc2ncc(F)c(Nc3ccc(F)cc3)n2)c1
13.1
5. O=C(Nc1cccc(Nc2ncc(F)c(Nc3ccc(F)cc3)n2)c1)c1cccc([N+](=O)[O-])c1
11.3

Shifting focus to the molecule that follows.
For the molecule O=C(Nc1cccc(Nc2ncc(F)c(Nc3ccc(F)cc3)n2)c1)c1ccncc1 , report GI50. 4.57

---

Test system: A549
Test: Antiproliferative activity against human A549 cells after 3 days by SRB method
Format: functional
Conditions: A549, 72 h
reported property: GI50

Solved entries:
1) COCC(=O)Nc1cccc(Nc2ncc(F)c(Nc3ccc(F)cc3)n2)c1
2.05 µM
2) O=C(Nc1cccc(Nc2ncc(F)c(Nc3ccc(F)cc3)n2)c1)c1cnccn1
10.3 µM
3) O=C(Nc1nccs1)c1cccc(Nc2ncc(F)c(Nc3ccc(F)cc3)n2)c1
> 10 µM
4) CC(=O)N1CCCN(C(=O)c2cccc(Nc3ncc(F)c(Nc4ccc(F)cc4)n3)c2)CC1
9.96 µM

Shifting focus to the compound that follows.
For the compound Fc1cnc(Nc2cccc(N3CCOCC3)c2)nc1Nc1c(F)cccc1F , report GI50. 1.09 µM

---

Test system: A549
Experiment: Antiproliferative activity against human A549 cells after 3 days by SRB method
Type: functional
Conditions: A549, 72 h
reported property: GI50 (µM)
Answers are plain numbers, in µM.

1) O=C(c1cccc(Nc2ncc(F)c(Nc3ccc(F)cc3)n2)c1)N1CCCCC1
13.2
2) O=C(Nc1cccc(Nc2ncc(F)c(Nc3ccc(F)cc3)n2)c1)c1cccc([N+](=O)[O-])c1
7.25
3) CN1CCN(C(=O)c2cccc(Nc3ncc(F)c(Nc4ccc(F)cc4)n3)c2)CC1
9.07
4) O=C(Nc1cccc(Nc2ncc(F)c(Nc3ccc(F)cc3)n2)c1)c1ccncc1
1.65
5) O=C(Nc1ccc2c(c1)OCO2)c1cccc(Nc2ncc(F)c(Nc3ccc(F)cc3)n2)c1
12.9
6) CN1CCC(C(=O)Nc2cccc(Nc3ncc(F)c(Nc4ccc(F)cc4)n3)c2)CC1
1.33
7) O=C(c1cccc(Nc2ncc(F)c(Nc3ccc(F)cc3)n2)c1)N1CCOCC1
11.2
8) Fc1cnc(Nc2cccc(N3CCOCC3)c2)nc1Nc1cc(Cl)cc(Cl)c1
11.6

Value sought for every listed compound: GI50.
1. CN(C)CCNC(=O)c1cccc(Nc2ncc(F)c(Nc3ccc(F)cc3)n2)c1
2. O=C(Nc1cc(Cl)cc(Cl)c1)c1cccc(Nc2ncc(F)c(Nc3ccc(F)cc3)n2)c1

1. 1.45
2. 17.4

---

Assign log10(GI50) to each entry below.
Test system: A549
Experiment: Antiproliferative activity against human A549 cells after 3 days by SRB method
Type: functional
Details: A549, 72 h
Note the log scale: values are log10 of GI50 expressed in µM.

1) COc1ccc(NC(=O)c2cccc(Nc3ncc(F)c(Nc4ccc(F)cc4)n3)c2)cc1
1.04

Value sought for every listed compound: log10(GI50).
1. COc1ccc(N2CCOCC2)cc1Nc1ncc(F)c(Nc2ccc(F)cc2)n1
2. O=C(Nc1ccccn1)c1cccc(Nc2ncc(F)c(Nc3ccc(F)cc3)n2)c1
3. O=C(NCCO)c1cccc(Nc2ncc(F)c(Nc3ccc(F)cc3)n2)c1
4. COc1cc(NC(=O)c2cccc(Nc3ncc(F)c(Nc4ccc(F)cc4)n3)c2)cc(OC)c1

1. 1.26
2. 1.18
3. 1.07
4. 1.14

---

Assign GI50 to each entry below.
Test system: A549
Experiment: Antiproliferative activity against human A549 cells after 3 days by SRB method
Type: functional
Settings: A549, 72 h

Solved entries:
1. O=C(Nc1ccc(C(F)(F)F)cc1)c1cccc(Nc2ncc(F)c(Nc3ccc(F)cc3)n2)c1
> 10 µM
2. Fc1cnc(Nc2cccc(N3CCOCC3)c2)nc1Nc1ccc(Cl)c(Cl)c1
12 µM
3. CS(=O)(=O)N1CCN(C(=O)c2cccc(Nc3ncc(F)c(Nc4ccc(F)cc4)n3)c2)CC1
12.2 µM

Value sought for every listed compound: GI50.
1. Cn1ccnc1NC(=O)c1cccc(Nc2ncc(F)c(Nc3ccc(F)cc3)n2)c1
2. Fc1ccc(Nc2nc(Nc3cccc(N4CCOCC4)c3)ncc2F)cc1

1: 10.1 µM; 2: 3.83 µM

---

Assay: Antiproliferative activity against human KBVIN cells after 3 days by SRB method
Assay type: functional
Conditions: 72 h
Assign GI50 to each entry below.
Answers are plain numbers, in µM.

Value sought for every listed molecule: GI50.
1. O=C(Nc1ccccn1)c1cccc(Nc2ncc(F)c(Nc3ccc(F)cc3)n2)c1
2. O=C(Nc1cccc(Nc2ncc(F)c(Nc3ccc(F)cc3)n2)c1)c1cnccn1
3. O=C(c1cccc(Nc2ncc(F)c(Nc3ccc(F)cc3)n2)c1)N1CCOCC1
4. COc1ccc(N2CCN(C)CC2)cc1Nc1ncc(F)c(Nc2ccc(F)cc2)n1
5. COc1cc(NC(=O)c2cccc(Nc3ncc(F)c(Nc4ccc(F)cc4)n3)c2)cc(OC)c1
6. O=C(Nc1ccc2c(c1)OCO2)c1cccc(Nc2ncc(F)c(Nc3ccc(F)cc3)n2)c1

1: 13.7; 2: 20.1; 3: 13.1; 4: 0.91; 5: 12.7; 6: 12

For the molecule COCC(=O)Nc1cccc(Nc2ncc(F)c(Nc3ccc(F)cc3)n2)c1 , report GI50. 3.94
